- assay_target: Solute carrier family 22 member 1 (Homo sapiens)
- Sequence (O15245 whole entry): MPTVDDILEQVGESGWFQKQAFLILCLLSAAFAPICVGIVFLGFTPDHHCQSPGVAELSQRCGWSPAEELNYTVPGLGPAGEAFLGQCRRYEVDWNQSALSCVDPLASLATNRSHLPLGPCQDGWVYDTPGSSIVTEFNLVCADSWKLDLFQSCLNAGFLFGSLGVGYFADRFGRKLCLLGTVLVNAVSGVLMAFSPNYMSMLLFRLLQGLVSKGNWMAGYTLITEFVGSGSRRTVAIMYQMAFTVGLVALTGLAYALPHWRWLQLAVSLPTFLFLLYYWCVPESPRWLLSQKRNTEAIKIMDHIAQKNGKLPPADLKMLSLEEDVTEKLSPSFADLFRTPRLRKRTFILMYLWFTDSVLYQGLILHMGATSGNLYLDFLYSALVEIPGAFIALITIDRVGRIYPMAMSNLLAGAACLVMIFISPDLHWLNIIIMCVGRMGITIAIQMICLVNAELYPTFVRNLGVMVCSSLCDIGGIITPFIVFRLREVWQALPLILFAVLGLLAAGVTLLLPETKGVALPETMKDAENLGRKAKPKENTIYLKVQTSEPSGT
- experiment_summary: TP_TRANSPORTER: inhibition of TEA uptake in OCT1-expressing HeLa cells
- Type: functional, cell-based
pKi: −log10 of the molar value.
If the reported pKi equals or exceeds 4, assign Y. If not, assign N.

Request: For this compound, is measured pKi 4 or higher? CNCCCN1c2ccccc2CCc2ccccc21 [DESIPRAMINE]
Response: Y

Request: Same question, CN/C(=N/CCSCc1nc[nH]c1C)NC#N [CIMETIDINE] this time
Response: N

Request: Entry CC[N+](CC)(CC)CC [TETRYLAMMONIUM] please
Response: N

Request: Same lookup for CCN(CC)CCNC(=O)c1ccc(N)cc1 [PROCAINAMIDE] , please.
Response: Y

Request: Also check CNC(=O)c1cccnc1 [NICOTINYL METHYLAMIDE]
Response: N

Request: Similarly, C[C@]12C[C@H](O)[C@H]3[C@@H](CCC4=CC(=O)CC[C@@]43C)[C@@H]1CC[C@@H]2C(=O)CO [CORTICOSTERONE] ?
Response: Y

Request: Repeat with CCCCC[N+](CCCCC)(CCCCC)CCCCC [TETRAPENTYLAMMONIUM]
Response: Y

Request: Ok, now Cc1ncc2n1-c1ccc(Cl)cc1C(c1ccccc1F)=NC2 [MIDAZOLAM]
Response: Y

Request: Note, next up: C[n+]1ccc(-c2ccccc2)cc1
Response: Y

Request: Clc1cccc(Cl)c1N=C1NCCN1 [CLONIDINE] ?
Response: Y

Request: Another compound: CCN1/C(=C/c2ccc3ccccc3[n+]2CC)C=Cc2ccccc21
Response: Y

Request: Also need CC(=O)O[C@H]1C[C@@H]2CC[C@@H]3[C@H](CC[C@@]4(C)[C@H]3C[C@H]([N+]3(C)CCCCC3)[C@@H]4OC(C)=O)[C@@]2(C)C[C@@H]1N1CCCCC1 [VECURONIUM] , thanks.
Response: N

// provenance: ChEMBL document CHEMBL2074317
